test: CEETOX_H295R_ANDR: CeeTox H295R High-throughput Steroidogenesis Assay for Androstenedione (ANDR) (AID 2283436); details: actives raise or lower the signal;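 further: human H295R adrenal cells exposed for 48 h with androstenedione measured in medium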
Activity calls are given as the source filed them. How the source made its calls: active means hit-call score of the fitted dose curve at least 0.9, where 1 is the maximum; inactive means score below 0.9.
experimental.readout: AC50

- molecule: "CC1(C)C(C=C(Cl)Cl)C1C(=O)OCc1cccc(Oc2ccccc2)c1 (stereo unspecified)"
  experimental.readout: "AC50"
  result: "inactive"
- molecule: "CC(=O)S[C@@H]1CC2=CC(=O)CC[C@]2(C)[C@H]2CC[C@@]3(C)[C@@H](CC[C@@]34CCC(=O)O4)[C@H]12"
  experimental.readout: "AC50"
  result: "1.63 µM (active)"
- molecule: "CSC(=O)c1cccc2nnsc12"
  experimental.readout: "AC50"
  result: "inactive"
- molecule: "CC(C)(c1ccc(O)cc1)c1ccc(O)cc1"
  experimental.readout: "AC50"
  result: "3.26 µM (active) [middle of 4 runs]"
- molecule: "CCCCOCCOCCOCc1cc2c(cc1CCC)OCO2"
  experimental.readout: "AC50"
  result: "inactive"

Which AC50 value is on record for c1ccc2[nH]c(-c3cscn3)nc2c1 ?
inactive

###

read-out: Cytochrome P450 3A4 (Homo sapiens) (UniProt P08684); test: CLD_CYP3A4_6hr: CellzDirect (CLD) Gene Expression Assay for xenobiotic metabolism (CYP3A4) at 6 hours (AID 2283680)
Sequence (P08684 whole entry, looked up): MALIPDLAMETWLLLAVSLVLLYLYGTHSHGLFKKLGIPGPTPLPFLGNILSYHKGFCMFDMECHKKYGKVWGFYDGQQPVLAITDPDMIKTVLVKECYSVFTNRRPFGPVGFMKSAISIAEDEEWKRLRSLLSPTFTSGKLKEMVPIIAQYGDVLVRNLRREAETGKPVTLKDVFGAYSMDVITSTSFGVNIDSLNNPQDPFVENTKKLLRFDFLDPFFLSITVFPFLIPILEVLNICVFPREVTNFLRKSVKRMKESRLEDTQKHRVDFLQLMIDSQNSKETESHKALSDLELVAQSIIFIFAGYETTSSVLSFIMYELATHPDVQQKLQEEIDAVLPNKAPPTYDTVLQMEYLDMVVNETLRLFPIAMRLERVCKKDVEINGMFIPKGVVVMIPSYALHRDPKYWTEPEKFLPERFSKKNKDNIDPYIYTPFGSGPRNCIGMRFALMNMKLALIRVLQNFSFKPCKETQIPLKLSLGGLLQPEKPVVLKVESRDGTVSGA
Inconclusive results are not listed. The source made the active and inactive calls. How the source made its calls: active means hit-call score of the fitted dose curve at least 0.9, where 1 is the maximum; inconclusive means response in the unintended direction; inactive means score below 0.9.
Give your call using only these classes: true for active, false for inactive

- compound: "CSC(=O)c1cccc2nnsc12"
  answer.label: "false"

Could you please tell me the result logged for CCNc1nc(N)nc(Cl)n1 in this assay?
false

Could you please tell me the result logged for COC(=O)c1cccc(C)c1S(=O)(=O)NC(=O)Nc1nc(OCC(F)(F)F)nc(N(C)C)n1 in this assay?
false

Could you please tell me the result logged for CCCCOC(=O)[C@@H](C)Oc1ccc(Oc2ccc(C(F)(F)F)cn2)cc1 in this assay?
false

Could you please tell me the result logged for CCCCC(CC)COC(=O)c1ccccc1C(=O)O (stereo unspecified) in this assay?
false

Could you please tell me the result logged for COC(=O)CSc1cc(N=c2sc(=O)n3n2CCCC3)c(F)cc1Cl in this assay?
true

Could you please tell me the result logged for CCCN(CCC)c1c([N+](=O)[O-])cc(C(F)(F)F)c(N)c1[N+](=O)[O-] in this assay?
false

Could you please tell me the result logged for CCCOC(=O)NCCCN(C)C in this assay?
false

Could you please tell me the result logged for CCN(Cc1c(F)cccc1Cl)c1c([N+](=O)[O-])cc(C(F)(F)F)cc1[N+](=O)[O-] in this assay?
true

Could you please tell me the result logged for CC(C)(c1ccc(O)cc1)c1ccc(O)cc1 in this assay?
false

Could you please tell me the result logged for CCOC(=O)COc1cc(-n2ncc(C(F)(F)F)c(C)c2=O)c(F)cc1Cl in this assay?
true

###

read-out: E-selectin (Homo sapiens) (UniProt P16581); assay: BSK_SAg_Eselectin: BioMAP Diversity Plus: SAg Assay for Eselectin Biomarker Activity (AID 2283091); settings: primary human HUVEC with PBMC; actives raise or lower the signal
Sequence (P16581 whole entry, looked up): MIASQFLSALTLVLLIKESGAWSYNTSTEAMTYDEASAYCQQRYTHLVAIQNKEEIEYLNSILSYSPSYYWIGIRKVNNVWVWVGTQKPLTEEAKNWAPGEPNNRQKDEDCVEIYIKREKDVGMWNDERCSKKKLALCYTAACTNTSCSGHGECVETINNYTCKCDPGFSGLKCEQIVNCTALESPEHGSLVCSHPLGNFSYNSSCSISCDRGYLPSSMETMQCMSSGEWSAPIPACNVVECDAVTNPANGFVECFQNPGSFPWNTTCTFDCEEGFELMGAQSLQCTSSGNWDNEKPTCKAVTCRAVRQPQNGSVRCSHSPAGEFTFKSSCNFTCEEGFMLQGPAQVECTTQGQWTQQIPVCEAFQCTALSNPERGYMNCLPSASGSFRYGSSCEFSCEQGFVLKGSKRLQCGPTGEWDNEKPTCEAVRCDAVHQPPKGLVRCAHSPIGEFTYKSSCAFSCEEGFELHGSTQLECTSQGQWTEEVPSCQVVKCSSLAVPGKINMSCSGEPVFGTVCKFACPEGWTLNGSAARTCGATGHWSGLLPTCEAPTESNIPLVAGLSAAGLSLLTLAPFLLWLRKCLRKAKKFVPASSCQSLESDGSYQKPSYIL
Active and inactive are the calls of the source. Rule for the calls: active = hit-call score of the fitted dose curve at least 0.9, where 1 is the maximum; inactive = score below 0.9.
Give your call using only these classes: TRUE (active), FALSE (inactive)

- compound: "CCCOC(=O)c1ccc(C(=O)OCCC)nc1"
  answer.label: "FALSE"
- compound: "CC1(C)C(C=C(Cl)Cl)C1C(=O)OCc1cccc(Oc2ccccc2)c1 (stereo not given)"
  answer.label: "FALSE"
- compound: "CCNc1nc(N)nc(Cl)n1"
  answer.label: "FALSE"
- compound: "CC(C)(C)[C@@H](O)[C@@H](Cc1ccc(Cl)cc1)n1cncn1"
  answer.label: "TRUE"

Could you please tell me the result logged for CCCCOCCOCCOCc1cc2c(cc1CCC)OCO2 in this assay?
FALSE

Could you please tell me the result logged for CCCCCCC(C)OC(=O)COc1nc(F)c(Cl)c(N)c1Cl (stereo not given) in this assay?
TRUE

Could you please tell me the result logged for COc1c(Cl)ccc(Cl)c1C(=O)O in this assay?
FALSE

Could you please tell me the result logged for CCCN(CCC)C(=O)SCC in this assay?
FALSE

Could you please tell me the result logged for CCCOC(=O)NCCCN(C)C in this assay?
FALSE

Could you please tell me the result logged for C[C@]12CC[C@@H]3c4ccc(O)cc4C[C@@H](CCCCCCCCCS(=O)CCCC(F)(F)C(F)(F)F)[C@H]3[C@@H]1CC[C@@H]2O (stereo not given in full) in this assay?
TRUE

Could you please tell me the result logged for C=CCOC(Cn1ccnc1)c1ccc(Cl)cc1Cl (stereo not given) in this assay?
TRUE

Could you please tell me the result logged for CCN(Cc1c(F)cccc1Cl)c1c([N+](=O)[O-])cc(C(F)(F)F)cc1[N+](=O)[O-] in this assay?
FALSE

Could you please tell me the result logged for CCCCCOC(=O)COc1cc(N2C(=O)C3=C(CCCC3)C2=O)c(F)cc1Cl in this assay?
TRUE

Could you please tell me the result logged for CCCCC(CC)COC(=O)c1ccccc1C(=O)O (stereo not given) in this assay?
FALSE

Could you please tell me the result logged for CCCCOC(=O)[C@@H](C)Oc1ccc(Oc2ccc(C(F)(F)F)cn2)cc1 in this assay?
FALSE

Could you please tell me the result logged for CCOC(=O)c1ccc(O)cc1 in this assay?
FALSE

Could you please tell me the result logged for CCOC(=O)C(C)Oc1ccc(Oc2nc3ccc(Cl)cc3o2)cc1 (stereo not given) in this assay?
TRUE

Could you please tell me the result logged for C#C[C@]1(O)CC[C@H]2[C@@H]3CCC4=CC(=O)CC[C@@H]4[C@H]3CC[C@@]21CC in this assay?
FALSE

Could you please tell me the result logged for COC(=O)c1ccc(I)cc1S(=O)(=O)NC(=O)Nc1nc(C)nc(OC)n1 in this assay?
FALSE

###

assay: APR_HepG2_StressKinase_1hr: Apredica 1-hour HepG2 Assay for Stress Kinase (AID 2282906); conditions: HepG2 stress kinase (phospho-c-Jun) imaging, actives raise or lower the signal
Calls of active or inactive are those of the source. How the source made its calls: active means hit-call score of the fitted dose curve at least 0.9, where 1 is the maximum; inactive means score below 0.9.
Give your call using only these classes: active, inactive

Consider the following illustrative entries.
- molecule: "COC(=O)c1cccc(C)c1S(=O)(=O)NC(=O)Nc1nc(OCC(F)(F)F)nc(N(C)C)n1"
  answer.label: "inactive"
- molecule: "CCCCCOC(=O)COc1cc(N2C(=O)C3=C(CCCC3)C2=O)c(F)cc1Cl"
  answer.label: "active"
- molecule: "CCOC(=O)NCCOc1ccc(Oc2ccccc2)cc1"
  answer.label: "inactive"
- molecule: "CCC(O)=C1C(=O)CC(C(=O)O)CC1=O (configuration not stated)"
  answer.label: "inactive"
- molecule: "CCCCOCCOCCOCc1cc2c(cc1CCC)OCO2"
  answer.label: "inactive"

Could you please tell me the result logged for CCOC(=O)C(C)Oc1ccc(Oc2cnc3cc(Cl)ccc3n2)cc1 (configuration not stated) in this assay?
inactive

Could you please tell me the result logged for CC(C)(C)[C@@H](O)[C@@H](Cc1ccc(Cl)cc1)n1cncn1 in this assay?
inactive

Could you please tell me the result logged for CCCOC(=O)c1ccc(C(=O)OCCC)nc1 in this assay?
inactive

###

read-out: Protein phosphatase 2A (PPP2R4), PTPA (gene 5524); assay: LTEA_HepaRG_PPP2R4: Life Technologies and Expression Analysis (LTEA) Assay for Protein phosphatase 2A (PPP2R4) using HepaRG (AID 2283522); settings: mRNA level, 48 h; actives raise or lower the signal
Active and inactive are the calls of the source. Rule for the calls: active = hit-call score of the fitted dose curve at least 0.9, where 1 is the maximum; inactive = score below 0.9.
Give your call using only these classes: t for active, f for inactive

Could you please tell me the result logged for O=C(c1ccc(O)cc1O)c1ccc(O)cc1O in this assay?
f

Could you please tell me the result logged for CCCOC(=O)NCCCN(C)C in this assay?
f

Could you please tell me the result logged for CCNc1nc(N)nc(Cl)n1 in this assay?
f

Could you please tell me the result logged for Oc1ccc(C(c2ccc(O)cc2)C(Cl)(Cl)Cl)cc1 in this assay?
t

Could you please tell me the result logged for CC(=O)S[C@@H]1CC2=CC(=O)CC[C@]2(C)[C@H]2CC[C@@]3(C)[C@@H](CC[C@@]34CCC(=O)O4)[C@H]12 in this assay?
f

Could you please tell me the result logged for C[C@]12C[C@H](O)[C@H]3[C@@H](CCC4=CC(=O)CC[C@@]43C)[C@@H]1CC[C@@H]2C(=O)CO in this assay?
f

Could you please tell me the result logged for S=C([S-])NCCNC(=S)[S-].[Mn+2] in this assay?
t

###

assay: IUF_NPC1a_proliferation_area_72hr: Leibniz Research Institute for Environmental Medicine (IUF) 72-hour Neural Progenitor Cell Proliferation Area Assay (NPC1a) (AID 2284208)
Active and inactive are the calls of the source. How the source made its calls: active means hit-call score of the fitted dose curve at least 0.9, where 1 is the maximum; inactive means score below 0.9.
Give your call using only these classes: yes for active, no for inactive

Consider the following illustrative entries.
- record.smiles: "S=C([S-])NCCNC(=S)[S-].[Mn+2]"
  answer.label: "no"
- record.smiles: "CCCN(CCC)C(=O)SCC"
  answer.label: "no"
- record.smiles: "CC(C)(c1ccc(O)cc1)c1ccc(O)cc1"
  answer.label: "no"
- record.smiles: "C#CCOC(=O)[C@@H](C)Oc1ccc(Oc2ncc(Cl)cc2F)cc1"
  answer.label: "yes"
- record.smiles: "O=C(O)c1ccccc1"
  answer.label: "no"

Could you please tell me the result logged for CSC(=O)c1cccc2nnsc12 in this assay?
no
